# experimental-details: Chemical stability assessment of peptides (relative purity loss)
# Type: physicochemical
# applied-conditions: 50 mM phosphate buffer pH 7.4 + acetonitrile (1:1); 24 hours at 37° C.
Positions of bridges follow the written chain, without caps; N, C: chain ends. Non-standard residues stand in square brackets, D forms with d. Residues, ends and D or L forms follow the SMILES beside them. *: point of attachment. Trp(7-Me) = Cc1cccc2c(C[C@H](N)C(=O)O)c[nH]c12; 2Nal = N[C@@H](Cc1ccc2ccccc2c1)C(=O)O; 3Pal = N[C@@H](Cc1cccnc1)C(=O)O; Thp = NC1(C(=O)O)CCOCC1; Me2NCH2CH2 = CN(C)CC*; Aib = CC(C)(N)C(=O)O; Ava = NCCCCC(=O)O; βAla = NCCC(=O)O
parameter: Chemical stability (relative purity loss) Buffer pH 7.4 (%)
Respond with the bare value in %.

CC(=O)NCCCC[C@@H]1NC(=O)[C@H](Cc2c[nH]c3c(C)cccc23)NC(=O)[C@H]([C@@H](C)O)NC(=O)[C@H](CC(N)=O)NC(=O)[C@@H]2CSSC[C@H](NC1=O)C(=O)N[C@@H](Cc1ccc(OCCN(C)C)cc1)C(=O)N[C@@H](Cc1ccc3ccccc3c1)C(=O)NC1(CCOCC1)C(=O)N[C@H](C(=O)N[C@@H](CC(N)=O)C(=O)N[C@@H](Cc1cccnc1)C(N)=O)CCC(=O)NCCCCC(=O)N2 [compound 51] ([Ava]CNT[Trp(7-Me)]K(Ac)CY(Me2NCH2CH2)[2Nal][Thp]EN[3Pal]-NH2; disulfide 2-7; lactam N-11)    0.7

Next:
Look up Chemical stability (relative purity loss) Buffer pH 7.4: CC(=O)NCCCC[C@@H]1NC(=O)[C@H](Cc2c[nH]c3c(C)cccc23)NC(=O)[C@H]([C@@H](C)O)NC(=O)[C@H](CC(N)=O)NC(=O)[C@@H]2CSSC[C@H](NC1=O)C(=O)N[C@@H](Cc1ccc(OCCN(C)C)cc1)C(=O)N[C@@H](Cc1ccc3ccccc3c1)C(=O)NC(C)(C)C(=O)N[C@H](C(=O)N[C@@H](CC(N)=O)C(=O)N[C@@H](Cc1c[nH]cn1)C(=O)NCCC(N)=O)CCC(=O)NCCCCC(=O)N2 [compound 48] ([Ava]CNT[Trp(7-Me)]K(Ac)CY(Me2NCH2CH2)[2Nal][Aib]ENH[βAla]-NH2; disulfide 2-7; lactam N-11)
2.8

====

# experimental-details: Chemical stability assessment of peptides (relative purity loss)
# Type: physicochemical
# applied-conditions: 50 mM phosphate buffer pH 6.5 + acetonitrile (1:1); 24 hours at 37° C.
Starred links: 1 amine or outer side, 2 acyl side, 3 side chain; linkers in the order of their positions; H or OH if unused. Positions of bridges follow the written chain, without caps; N, C: chain ends. Non-standard residues stand in square brackets, D forms with d. Residues, ends and D or L forms follow the SMILES beside them. *: point of attachment. X3 = CN(CCCCC(=O)N[C@@H](CS[*:2])C(=O)[*:1])[*:3]; Trp(7-Me) = Cc1cccc2c(C[C@H](N)C(=O)O)c[nH]c12; 2Nal = N[C@@H](Cc1ccc2ccccc2c1)C(=O)O; AEF = NCCOc1ccc(C[C@H](N)C(=O)O)cc1; 3Pal = N[C@@H](Cc1cccnc1)C(=O)O; αMeL = CC(C)C[C@](C)(N)C(=O)O; Suc = O=C(CCC(=O)[*:2])[*:1]; Thp = NC1(C(=O)O)CCOCC1; Me2NCH2CH2 = CN(C)CC*; Ava = NCCCCC(=O)O; Sar = CNCC(=O)O
# Chemical stability (relative purity loss) Buffer pH 6.5 listing for each entry below
Respond with the bare value in %.

Take a look at these entries with their results.
CC(=O)NCCCC[C@@H]1NC(=O)[C@H](Cc2c[nH]c3c(C)cccc23)NC(=O)[C@H]([C@@H](C)O)NC(=O)[C@H](CC(N)=O)NC(=O)[C@@H]2CSSC[C@H](NC1=O)C(=O)N[C@@H](Cc1ccc(OCCN(C)C)cc1)C(=O)N[C@@H](Cc1ccc3ccccc3c1)C(=O)N[C@@](C)(CC(C)C)C(=O)N[C@H](C(=O)N[C@@H](CC(N)=O)C(=O)N[C@@H](Cc1c[nH]cn1)C(N)=O)CCCCNC(=O)CCC(=O)N2 [compound 23] (CNT[Trp(7-Me)]K(Ac)CY(Me2NCH2CH2)[2Nal][αMeL]KNH-NH2; disulfide 1-6; linker N-10 via Suc)    0.0
CC(=O)N[C@H]1CCCCNC(=O)[C@@H]2CSSC[C@H](NC(=O)[C@H](CCC(N)=O)NC(=O)[C@H](Cc3c[nH]c4ccccc34)NC1=O)C(=O)N[C@@H](Cc1ccc(OCCN)cc1)C(=O)N[C@@H](Cc1ccc3ccccc3c1)C(=O)N[C@@](C)(CC(C)C)C(=O)N[C@H](C(=O)N[C@@H](C)C(=O)NCC(N)=O)CCC(=O)N(C)CCCCC(=O)N2 [compound 18] (Ac-KWQC[AEF][2Nal][αMeL]EAG-NH2; linker 1-4-8 via X3)    0.1
Cc1cccc2c(C[C@@H]3NC(=O)[C@H]([C@@H](C)O)NC(=O)[C@H](CC(N)=O)NC(=O)[C@@H]4CSSC[C@H](NC(=O)[C@H](CC(C)C)NC3=O)C(=O)N[C@@H](Cc3ccc(OCCN(C)C)cc3)C(=O)N[C@@H](Cc3ccc5ccccc5c3)C(=O)NC3(CCOCC3)C(=O)N[C@H](C(=O)N[C@@H](CC(N)=O)C(=O)N[C@@H](Cc3cccnc3)C(=O)N(C)CC(N)=O)CCC(=O)NCCCCC(=O)N4)c[nH]c12 [compound 24] ([Ava]CNT[Trp(7-Me)]LCY(Me2NCH2CH2)[2Nal][Thp]EN[3Pal][Sar]-NH2; disulfide 2-7; lactam N-11)    0.0
CC(=O)N[C@H]1CCCCNC(=O)[C@@H]2CSSC[C@H](NC(=O)[C@H](CCC(N)=O)NC(=O)[C@H](Cc3c[nH]c4ccccc34)NC1=O)C(=O)N[C@@H](Cc1ccc(OCCN)cc1)C(=O)N[C@@H](Cc1ccc3ccccc3c1)C(=O)N[C@@](C)(CC(C)C)C(=O)N[C@H](C(=O)N[C@@H](CC(N)=O)C(=O)N[C@@H](CC(N)=O)C(N)=O)CCC(=O)N(C)CCCCC(=O)N2 [compound 14] (Ac-KWQC[AEF][2Nal][αMeL]ENN-NH2; linker 1-4-8 via X3)    0.6

Next:
Look up Chemical stability (relative purity loss) Buffer pH 6.5: CC(=O)N[C@H]1CCCCNC(=O)[C@@H]2CSSC[C@H](NC(=O)[C@H](CCC(N)=O)NC(=O)[C@H](Cc3c[nH]c4ccccc34)NC1=O)C(=O)N[C@@H](Cc1ccc(OCCN)cc1)C(=O)N[C@@H](Cc1ccc3ccccc3c1)C(=O)NC1(CCOCC1)C(=O)N[C@H](C(=O)N[C@@H](CC(N)=O)C(=O)N[C@@H](CC(N)=O)C(N)=O)CCC(=O)N(C)CCCCC(=O)N2 [compound 13] (Ac-KWQC[AEF][2Nal][Thp]ENN-NH2; linker 1-4-8 via X3)
0.2

These measurements were taken from patent US20260258084A1.
